Assay: galactose survival enhancers in mitochondrial complex I cybrids – cell-based, galactose medium, ATP luminescence, primary screen (AID 1645843);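 note: positive z means more ATP and so rescue of galactose-driven cybrid death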
Conditions: complex I mutant cybrid cells, 72 h, stronger effect = higher value
z-score vs -0.4: at or above is 1 (yes), below is 0 (no).

compound: CC(=O)c1ccc2c(c1)[C@@H]1C=CC[C@@H]1[C@H](c1cc3c(cc1Br)OCO3)N2
label-class: 0 (no)

Query string: Identify whether the reported z-score of the following compound is -0.4 or greater: `COc1ccc(NC(=O)c2ccc(-c3ccc(-c4noc(C)n4)cc3C)cc2)cc1OCCN(C)C`
Result string: 0 (no)

Query string: Can you handle O=C1C(CCC(O)c2ccc(F)cc2)C(c2ccc(O)cc2)N1c1ccc(F)cc1 (configuration not stated) next?
Result string: 1 (yes)

Query string: Can you handle `O=[N+]([O-])c1ccc(-c2nc(-c3ccc(F)cc3)c(-c3ccncc3)[nH]2)cc1` next?
Result string: 1 (yes)

Query string: Can you handle `c1ccc(COCCCc2cnc[nH]2)cc1` next?
Result string: 1 (yes)

Query string: Can you handle `CCc1cc2c(c(CC)n1)CCC(=O)N2Cc1ccc(-c2ccccc2-c2nn[nH]n2)cc1` next?
Result string: 1 (yes)

Query string: Can you handle CN1C[C@H]2c3ccccc3Oc3ccc(Cl)cc3[C@@H]2C1 (racemic) next?
Result string: 0 (no)

Query string: Can you handle `COC(=O)C1=CO[C@@H](O)[C@@H]2C(CO)=CC[C@H]12` next?
Result string: 1 (yes)

Query string: Can you handle `CCCCC(=O)NCCc1c(Cc2ccccc2)[nH]c2ccccc12` next?
Result string: 1 (yes)

Query string: Can you handle `Cc1cccc(C)c1NC(=O)C[N+](C)(C)C` next?
Result string: 1 (yes)

Query string: Can you handle `COc1ccc(C(=O)Nc2sc3c(c2C(N)=O)CCCC3)cc1OC` next?
Result string: 1 (yes)

Query string: Can you handle `Cc1cc(/C(=C\Nc2ccc(Cl)cc2)C(=O)Nc2ccc(Cl)cc2)on1` next?
Result string: 1 (yes)

Query string: Can you handle `O=C(Nc1ccc2c(c1)CCN(Cc1ncn[nH]1)C2)c1ccccc1-c1ccc(C(F)(F)F)cc1` next?
Result string: 1 (yes)

Query string: Can you handle CN(CCOc1ccc(CC(Nc2ccccc2C(=O)c2ccccc2)C(=O)O)cc1)c1ccccn1 (configuration not stated) next?
Result string: 1 (yes)

Query string: Can you handle `CC[C@H](CO)Nc1nc(Nc2cccc(-c3ccccn3)c2)c2ncn(C(C)C)c2n1` next?
Result string: 0 (no)

Query string: Can you handle `COc1cc2c(cc1OC)C(c1ccc(N)cc1)=NNC(=O)C2` next?
Result string: 1 (yes)

Query string: Can you handle `CSc1ccc([C@H]2CN3CCC[C@H]3c3ccccc32)cc1` next?
Result string: 0 (no)

Query string: Can you handle `Cc1ccc(Sc2cncc3sc(C(N)=O)cc23)cc1` next?
Result string: 0 (no)

Query string: Can you handle `CC1=C(/C=C/C(=C/C=C/C(C)=C/C(=O)O)c2ccc(C)cc2)C(C)(C)CCC1` next?
Result string: 1 (yes)

Query string: Can you handle `Nc1nc(OCc2ccccc2)c2[nH]cnc2n1` next?
Result string: 1 (yes)

Query string: Can you handle CNC(=O)Oc1ccc2c(c1)C1(C)CCN(C)C1N2C (configuration not stated) next?
Result string: 0 (no)

Query string: Can you handle NC(C(=O)O)c1cc(O)cc(O)c1 (configuration not stated) next?
Result string: 0 (no)
